Reference for the values: paper PMC11855827

Tested on: C. elegans
recorded conditions: Table S2, C. elegans SS assay, 110 μM, 0 h, averages of 4 data points
Percentage of motility inhibition 0 h for assorted compounds
Please give the number followed by its unit.

>>> assay_value("CN1CCN2c3ccccc3Cc3ccccc3C2C1.Cl (stereo not drawn) [Mianserin (hydrochloride)]")
"0%"
>>> assay_value("O=C([O-])[C@H](O)[C@@H](O)[C@H](O)[C@H](O)CO.[Na+] [Gluconate (sodium)]")
"15%"
>>> assay_value("Nc1ncnc2c1ncn2[C@@H]1O[C@H](COP(=O)(O)O)[C@@H](O)[C@H]1O.O [Adenosine 5'-monophosphate (monohydrate)]")
"20%"
>>> assay_value("COc1cc(/C=C/C(=O)O)ccc1O [Ferulic acid]")
"58%"
>>> assay_value("C=C[C@]1(C)C[C@@H](OC(=O)CSCCN(CC)CC)[C@]2(C)[C@H](C)CC[C@]3(CCC(=O)[C@H]32)[C@@H](C)[C@@H]1O.O=C(O)/C=C/C(=O)O [Tiamulin (fumarate)]")
"9%"

We now examine a further compound.
Give the measured Percentage of motility inhibition 0 h for C[C@@H]1CC[C@]2(C(=O)O[C@@H]3O[C@H](CO)[C@@H](O)[C@H](O)[C@H]3O)CC[C@]3(C)C(=CC[C@@H]4[C@@]5(C)C[C@@H](O)[C@H](O)C(C)(C)[C@@H]5CC[C@]43C)[C@@H]2[C@]1(C)O [Rosamultin] 21%
